Target: mMC3R (Mus musculus)
Sequence (P33033 whole entry): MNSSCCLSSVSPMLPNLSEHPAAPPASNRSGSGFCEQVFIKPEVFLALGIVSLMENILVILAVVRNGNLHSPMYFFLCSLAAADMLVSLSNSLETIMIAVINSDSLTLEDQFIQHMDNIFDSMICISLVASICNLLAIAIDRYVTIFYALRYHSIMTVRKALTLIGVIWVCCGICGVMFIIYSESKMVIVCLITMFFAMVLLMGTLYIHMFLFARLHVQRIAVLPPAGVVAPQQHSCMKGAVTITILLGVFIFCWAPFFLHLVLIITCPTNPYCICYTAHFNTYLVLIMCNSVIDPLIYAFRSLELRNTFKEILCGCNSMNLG
Experiment: AlphaScreen cAMP agonist assay at mMC3R
Conditions: Table 1; @ 100 μM
Square brackets hold non-standard residues; d marks the D form. Peptide text beside a SMILES is read from it. Bip = N[C@@H](Cc1ccc(-c2ccccc2)cc1)C(=O)O; dPhe(4-I) = N[C@H](Cc1ccc(I)cc1)C(=O)O; 2Nal = N[C@@H](Cc1ccc2ccccc2c1)C(=O)O; d2Nal = N[C@H](Cc1ccc2ccccc2c1)C(=O)O; Tic = O=C(O)[C@@H]1Cc2ccccc2CN1
Reported Endpoint: mMC3R Agonist, percent of the NDP-MSH maximal positive control

Compound	Assay Target	Result
CC(=O)N[C@@H](Cc1c[nH]cn1)C(=O)N[C@@H](CCCNC(=N)N)C(=O)N[C@H](Cc1ccc(I)cc1)C(=O)N[C@@H](Cc1ccc(-c2ccccc2)cc1)C(N)=O [SKY4-48-3, Ac-His-Arg-(pI)DPhe-Bip-NH2] (Ac-HR[dPhe(4-I)][Bip]-NH2)	mMC3R (Mus musculus)	53% @ 100 μM
CC(=O)N[C@@H](CCCNC(=N)N)C(=O)N[C@@H](CCCNC(=N)N)C(=O)N[C@H](Cc1ccc(I)cc1)C(=O)N[C@@H](Cc1ccc2ccccc2c1)C(N)=O	mMC3R (Mus musculus)	51% @ 100 μM
CC(=O)N1Cc2ccccc2C[C@H]1C(=O)N[C@@H](CCCNC(=N)N)C(=O)N[C@H](Cc1ccc(I)cc1)C(=O)N[C@H](Cc1ccc2ccccc2c1)C(N)=O [SKY4-48-46, Ac-Tic-Arg-(pI)DPhe-DNal(2′)-NH2] (Ac-[Tic]R[dPhe(4-I)][d2Nal]-NH2)	mMC3R (Mus musculus)	42% @ 100 μM
CC(=O)N[C@H](Cc1ccc2ccccc2c1)C(=O)N[C@@H](CCCNC(=N)N)C(=O)N[C@H](Cc1ccc(I)cc1)C(=O)N[C@H](Cc1ccc2ccccc2c1)C(N)=O [SKY4-48-49, Ac-DNal(2′)-Arg-(pI)DPhe-DNal(2′)-NH2] (Ac-[d2Nal]R[dPhe(4-I)][d2Nal]-NH2)	mMC3R (Mus musculus)	40% @ 100 μM
CC(=O)N[C@@H](Cc1ccc2ccccc2c1)C(=O)N[C@@H](CCCNC(=N)N)C(=O)N[C@H](Cc1ccc(I)cc1)C(=O)N[C@@H](Cc1ccc2ccccc2c1)C(N)=O [SKY4-48-40, Ac-Nal(2′)-Arg-(pI)DPhe-Nal(2′)-NH2] (Ac-[2Nal]R[dPhe(4-I)][2Nal]-NH2)	mMC3R (Mus musculus)	39% @ 100 μM
CC(=O)N[C@@H](Cc1ccccc1)C(=O)N[C@@H](CCCNC(=N)N)C(=O)N[C@H](Cc1ccc(I)cc1)C(=O)N[C@@H](Cc1ccccc1)C(N)=O [SKY4-48-31, Ac-Phe-Arg-(pI)DPhe-Phe-NH2] (Ac-FR[dPhe(4-I)]F-NH2)	mMC3R (Mus musculus)	50% @ 100 μM
CC(=O)N[C@@H](CCCNC(=N)N)C(=O)N[C@@H](CCCNC(=N)N)C(=O)N[C@H](Cc1ccc(I)cc1)C(=O)N[C@@H](Cc1ccc(-c2ccccc2)cc1)C(N)=O	mMC3R (Mus musculus)	45% @ 100 μM

Ask | Check the records and state mMC3R Agonist, percent of the NDP-MSH maximal positive control for CC(=O)N[C@@H](Cc1ccccc1)C(=O)N[C@@H](CCCNC(=N)N)C(=O)N[C@H](Cc1ccc(I)cc1)C(=O)N[C@@H](Cc1ccc2ccccc2c1)C(N)=O [SKY4-48-39, Ac-Phe-Arg-(pI)DPhe-Nal(2′)-NH2] (Ac-FR[dPhe(4-I)][2Nal]-NH2)
Reply | 44% @ 100 μM
